TEST METHOD NOTES: in vitro
PARTICULARS: human, hela cells, % viability
ASSAY READOUT: viability at 28.5 h, 10 µM (%)
Form entry: value (%) — number only.

# annotated cases, reported viability at 28.5 h, 10 µM shown
O=C(CC(CN1CCCN(c2ncccn2)CC1)C(=O)O)NCc1ccccc1 (centres unmarked) [CBK286856]    87.2
CS(=O)(=O)N(CC(=O)O)Cc1ccccc1 [CBK265805]    90.1
c1cc(CSc2nnc(-c3ccncc3)o2)ccn1 [CBK270235]    92.3
CCN(Cc1cccc(C(=O)O)c1)Cc1noc(C2CCC2)n1 [CBK307708]    102

Please look at the following molecule next.
Give the measured viability at 28.5 h, 10 µM of O=C(Nc1ccc(Br)cc1)c1c(O)n2c3c(cccc3c1=O)CCC2 [CBK291207] .
103

These measurements were taken from paper PMC12040169.
